Source listed as paper PMC6151560.

- PROTOCOL TEXT: Partition coefficient log Po/w by HPLC-PDA (OECD method)
- CONDITION INFO: n-octanol/water (from HPLC retention on a C-18 column)
# label = MET if chromatographic logP >= 3 else NOT MET

Nc1cccc(C(=O)/C=C/C=C/c2ccccc2)c1: NOT MET
Cc1cccc(C(=O)/C=C/C=C/c2ccccc2)c1: MET
COc1ccc(C(=O)/C=C/C=C/c2ccccc2)cc1: MET

Input: # bool: chromatographic logP of COc1cccc(C(=O)/C=C/C=C/c2ccccc2)c1 >= 3
Output: MET

Input: And for COc1cc(C(=O)/C=C/C=C/c2ccccc2)ccc1O ?
Output: NOT MET

Input: Item: O=C(/C=C/C=C/c1ccccc1)c1ccc(Cl)c(Cl)c1
Output: MET

Input: And O=C(/C=C/C=C/c1ccccc1)c1cccc([N+](=O)[O-])c1 ?
Output: MET
